System: DERL-7 (IL-2 2.5 ng/mL);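 note: normalised to DMSO-only wells as negative and benzethonium chloride as positive control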
Method summary: percent inhibition of viability; higher = more inhibition
Assay conditions: 72 h; 10 nM
Please go through the items and note down their percent inhibition of viability.
State just the number; it will be interpreted in %.

Exercise: What percent inhibition of viability value was documented for this molecule, CS(=O)(=O)CCNCc1ccc(-c2ccc3ncnc(Nc4ccc(OCc5cccc(F)c5)c(Cl)c4)c3c2)o1 [Lapatinib] (max concentration tested 1000 nM) ?
Key: 2.53

Exercise: Next record, please: CCOc1cc2ncc(C#N)c(Nc3ccc(OCc4ccccn4)c(Cl)c3)c2cc1NC(=O)/C=C/CN(C)C [Neratinib] (max concentration tested 1000 nM)
Key: 6.29

Exercise: Next record, please: COc1ccc(C[C@H](NC(=O)[C@H](C)NC(=O)CN2CCOCC2)C(=O)N[C@@H](Cc2ccccc2)C(=O)C2(C)CO2)cc1 (stereo in doubt) [ONX-0914] (max concentration tested 10000 nM)
Key: 28.7

Exercise: Next record, please: Cc1[nH]c(/C=C2\C(=O)Nc3ccccc32)c(C)c1CCC(=O)O [Orantinib] (max concentration tested 10000 nM)
Key: -2.21

Exercise: Next record, please: Cc1[nH]c2ccccc2c1CCNCc1ccc(/C=C/C(=O)NO)cc1 [Panobinostat] (max concentration tested 1000 nM)
Key: 36.5

Exercise: Next record, please: O=C(/C=C\n1cnc(-c2cc(C(F)(F)F)cc(C(F)(F)F)c2)n1)NNc1cnccn1 [Selinexor] (max concentration tested 10000 nM)
Key: 16.9

Exercise: Next record, please: CNC(=O)c1cc(Oc2ccc(NC(=O)Nc3cc(C(C)(C)C)nn3-c3ccc4ncccc4c3)c(F)c2)ccn1 [Rebastinib] (max concentration tested 1000 nM)
Key: -0.5

Exercise: Next record, please: C[C@H]1C[C@@H]2[C@H]([C@@H](O)C[C@@]3(C)[C@H]2CC[C@]3(O)C(=O)CO)[C@@]2(C)C=CC(=O)C=C12 [Methylprednisolone] (max concentration tested 10000 nM)
Key: 19

Exercise: Next record, please: CCOC(=O)CCNc1cc(N2CCc3ccccc3CC2)nc(-c2ccccn2)n1 [GSK-J4] (max concentration tested 100000 nM)
Key: -0.14

Exercise: Next record, please: COc1cc([C@@H]2c3cc4c(cc3[C@@H](O[C@@H]3O[C@@H]5CO[C@@H](c6cccs6)O[C@H]5[C@H](O)[C@H]3O)[C@H]3COC(=O)[C@H]23)OCO4)cc(OC)c1O [Teniposide] (max concentration tested 10000 nM)
Key: 34.5

Exercise: Next record, please: OC[C@H]1O[C@@H](n2cnc3c2N=CNC[C@H]3O)C[C@@H]1O [Pentostatin] (max concentration tested 10000 nM)
Key: 2.32
